# procedureDetails: recombinant barcode read abundance after kanamycin selection (control-corrected) (log10(CPM+1)); higher = more efficient recombination; sequences stand for … in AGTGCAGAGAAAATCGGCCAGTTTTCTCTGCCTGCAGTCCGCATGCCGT…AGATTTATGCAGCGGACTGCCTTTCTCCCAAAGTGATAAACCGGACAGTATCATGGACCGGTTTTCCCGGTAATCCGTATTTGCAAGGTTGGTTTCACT; site = the 11-nt target;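 also: IS621 recombinase and bridge RNA in Escherichia coli cells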
Decision: recombinant barcode read abundance (log10) compared against 0.6; not below it gives met, below it gives not met.

Q: Is the recorded value of recombinant barcode read abundance (log10) equal to or greater than 0.6 for this sequence? GGAGGTCCTTGGGTTCTAACCTGTTGCTA (site TAAGGTCCTTA)
Ans: not met

Q: Is the recorded value of recombinant barcode read abundance (log10) equal to or greater than 0.6 for this sequence? TGGCGTACTTGGGTTCTAACCTGTTGCCT (site TGGGGTACTAG)
Ans: not met

Q: Is the recorded value of recombinant barcode read abundance (log10) equal to or greater than 0.6 for this sequence? TTCTGCGCTTGGGTTCTAACCTGTTGCCT (site TTCTGTGCTAG)
Ans: not met

Q: Is the recorded value of recombinant barcode read abundance (log10) equal to or greater than 0.6 for this sequence? AGACTAACTTGGGTTCTAACCTGTTGCCT (site AGACTAACTAG)
Ans: met

Q: Is the recorded value of recombinant barcode read abundance (log10) equal to or greater than 0.6 for this sequence? TACTTGCCTTGGGTTCTAACCTGTTGCCT (site TACTTGCCTAG)
Ans: met

Q: Is the recorded value of recombinant barcode read abundance (log10) equal to or greater than 0.6 for this sequence? GGGTACCCTTGGGTTCTAACCTGTTGCCT (site GGGTACCCTAG)
Ans: met

Q: Is the recorded value of recombinant barcode read abundance (log10) equal to or greater than 0.6 for this sequence? CACTGCTCTTGGGTTCTAACCTGTTGCCT (site CACTGATCTAG)
Ans: not met

Q: Is the recorded value of recombinant barcode read abundance (log10) equal to or greater than 0.6 for this sequence? TCTACGTCTTGGGTTCTAACCTGTTGCCT (site TCTACCTCTAG)
Ans: not met

Q: Is the recorded value of recombinant barcode read abundance (log10) equal to or greater than 0.6 for this sequence? TAGTTTACTTGGGTTCTAACCTGTTGCCA (site TAGTTCACTTG)
Ans: not met

Q: Is the recorded value of recombinant barcode read abundance (log10) equal to or greater than 0.6 for this sequence? TTCGCGCCTTGGGTTCTAACCTGTTGCCT (site TTCACGCCTAG)
Ans: not met

Q: Is the recorded value of recombinant barcode read abundance (log10) equal to or greater than 0.6 for this sequence? TGCGAGTCTTGGGTTCTAACCTGTTGCGT (site TTCGAGTCTCC)
Ans: not met

Q: Is the recorded value of recombinant barcode read abundance (log10) equal to or greater than 0.6 for this sequence? AGGGAGACTTGGGTTCTAACCTGTTGCCA (site AGGAAGACTTG)
Ans: met

Q: Is the recorded value of recombinant barcode read abundance (log10) equal to or greater than 0.6 for this sequence? TAAAATACTTGGGTTCTAACCTGTTGCCT (site TAGATTACTAG)
Ans: not met

Q: Is the recorded value of recombinant barcode read abundance (log10) equal to or greater than 0.6 for this sequence? CTGCAAGCTTGGGTTCTAACCTGTTGCCT (site CTACAAGCTAG)
Ans: met

Q: Is the recorded value of recombinant barcode read abundance (log10) equal to or greater than 0.6 for this sequence? ATTTGTACTTGGGTTCTAACCTGTTGCCT (site ATTTGCACTAG)
Ans: not met

Q: Is the recorded value of recombinant barcode read abundance (log10) equal to or greater than 0.6 for this sequence? TGTAGGACTTGGGTTCTAACCTGTTGCCT (site CGTAGGACTAG)
Ans: not met

Q: Is the recorded value of recombinant barcode read abundance (log10) equal to or greater than 0.6 for this sequence? CGTCATCCTTGGGTTCTAACCTGTTGCCT (site CGTCACCCTAG)
Ans: not met

Q: Is the recorded value of recombinant barcode read abundance (log10) equal to or greater than 0.6 for this sequence? TGTGCCTCTTGGGTTCTAACCTGTTGCCT (site TGTGCCTCTAG)
Ans: not met

Q: Is the recorded value of recombinant barcode read abundance (log10) equal to or greater than 0.6 for this sequence? GAATATTCTTGGGTTCTAACCTGTTGCCT (site GATTATTCTAG)
Ans: not met

Q: Is the recorded value of recombinant barcode read abundance (log10) equal to or greater than 0.6 for this sequence? AGCCACCCTTGGGTTCTAACCTGTTGCCT (site AGCCACCCTAG)
Ans: not met

Q: Is the recorded value of recombinant barcode read abundance (log10) equal to or greater than 0.6 for this sequence? CTAGACTCTTGGGTTCTAACCTGTTGCTA (site CTAGACTCTTA)
Ans: met
